Test system: non-small cell lung cancer cell line H460
measurementNotes: In vitro human cancer cell line cytotoxicity (proliferation) assay in H460, CellTiter-Glo, 72 hours
Format: cell-based
measurementConditions: Homo sapiens, NCI-H460, 72 h, H460 cells, DMSO condition (no AKR1C3 inhibitor), read-out: CTG H460: Avg IC50 (nM) [Assay Condition: DMSO]
// reported IC50 for each item listed

Recorded results for 5 compounds are shown here.
compound	IC50
O=[N+]([O-])c1ccc2c(c1Oc1ccc(F)c(-c3ncccn3)c1)CC[C@@H]2OP(=O)(N1CC1)N1CC1 [Example 327]	< 10 nM
O=C(c1cccc(Oc2c([N+](=O)[O-])ccc3c2CCC3OP(=O)(N2CC2)N2CC2)c1)N1CC(F)(F)C1 (stereo not drawn) [Example 66]	< 10 nM
O=[N+]([O-])c1ccc2c(c1Oc1cncc(C3CC3)c1)CC[C@@H]2OP(=O)(N1CC1)N1CC1 [Example 319]	< 10 nM
CC(OP(=O)(N1CC1)N1CC1)c1ccc([N+](=O)[O-])c(Cn2cc(C(=O)N(C)C)ccc2=O)c1 (stereo not drawn) [Example 6]	≥ 100 nM
CNC(=O)c1ccc(Oc2c([N+](=O)[O-])ccc3c2CCC3OP(=O)(N2CC2)N2CC2)cc1 (stereo not drawn) [Example 36]	10 to 50 nM

Please examine the following record next.
For reference, reported IC50 for CNC(=O)c1cccc(Oc2cc3cc(C(C)OP(=O)(N4CC4)N4CC4)oc3cc2[N+](=O)[O-])c1 (stereo not drawn) [Example 539] stands at < 10 nM
